Give remaining activity at 1 µM for every item shown.
Target: RnDYRK1A-kd (Rattus norvegicus, UniProt Q63470)
Construct: RnDYRK1A-kd (Rattus norvegicus, amino acids 1–499 including the kinase domain, recombinant, expressed in bacteria); made in house; host or cells: bacteria
Assay: ADP-Glo kinase inhibition assay, DYRK1A
Assay type: biochemical
Conditions: read-out: DYRK1A % residual activity at 1 μM
Just the number please, in %, no unit attached.

Noted for CCCCc1c2cnccc2c([N+](=O)[O-])c2c1cnn2CC [Compound 3e] : its remaining activity at 1 µM reads 72

Noted for CCn1ncc2cc3cnccc3c(N)c21 [Compound 2c] : its remaining activity at 1 µM reads 23

Noted for CCn1ncc2cc3cncc(Br)c3c([N+](=O)[O-])c21 [Compound 4] : its remaining activity at 1 µM reads 52

Noted for CCn1ncc2cc3cnccc3c([N+](=O)[O-])c21 [Compound 1c] : its remaining activity at 1 µM reads 44

Noted for O=[N+]([O-])c1c2ccncc2cc2cn[nH]c12 [1a’] : its remaining activity at 1 µM reads 68

Noted for CCn1ncc2c(C3CC3)c3cnccc3c([N+](=O)[O-])c21 [Compound 3d] : its remaining activity at 1 µM reads 67

Noted for CCn1ncc2c(C)c3cnccc3c([N+](=O)[O-])c21 [Compound 3a] : its remaining activity at 1 µM reads 73

Noted for CCCc1c2cnccc2c([N+](=O)[O-])c2c1cnn2CC [Compound 3c] : its remaining activity at 1 µM reads 95

Noted for Cn1ncc2cc3cnccc3c([N+](=O)[O-])c21 [Compound 1b] : its remaining activity at 1 µM reads 41

Noted for CCc1c2cnccc2c([N+](=O)[O-])c2c1cnn2CC [Compound 3b] : its remaining activity at 1 µM reads 100

Noted for Cn1ncc2cc3cnccc3c(N)c21 [Compound 2b] : its remaining activity at 1 µM reads 18

Noted for Nc1c2ccncc2cc2cn[nH]c12 [Compound 2a, 1-H-pyrazolo[3,4-g]isoquinolin-9-amine] : its remaining activity at 1 µM reads 32

---

Target: CK1ε (Homo sapiens)
Construct: host or cells: Sf9 insect cells (baculovirus)
Experiment: ADP-Glo kinase inhibition assay, CK1ε
Type: biochemical
Settings: 1 μM compound, 10 μM ATP, duplicate; read-out: CK1 % residual activity at 1 μM
MEASUREMENT NAME: remaining activity at 1 µM (%)
Just the number please, in %, no unit attached.

Noted for Cn1ncc2cc3cnccc3c([N+](=O)[O-])c21 : its remaining activity at 1 µM reads 88

Noted for CCn1ncc2cc3cnccc3c([N+](=O)[O-])c21 : its remaining activity at 1 µM reads 90

Noted for CCn1ncc2c(C)c3cnccc3c([N+](=O)[O-])c21 : its remaining activity at 1 µM reads 89

Noted for CCn1ncc2cc3cnccc3c(N)c21 : its remaining activity at 1 µM reads 84

Noted for Nc1c2ccncc2cc2cn[nH]c12 [Compound 2a, 1-H-pyrazolo[3,4-g]isoquinolin-9-amine] : its remaining activity at 1 µM reads 71

---

Molecular target: Haspin-kd (human, kinase domain, amino acids 470–798) (Homo sapiens, UniProt Q8TF76)
Construct: Haspin-kd (human, kinase domain, amino acids 470–798, recombinant, expressed in bacteria); host or cells: bacteria
Sequence (Q8TF76 470-798): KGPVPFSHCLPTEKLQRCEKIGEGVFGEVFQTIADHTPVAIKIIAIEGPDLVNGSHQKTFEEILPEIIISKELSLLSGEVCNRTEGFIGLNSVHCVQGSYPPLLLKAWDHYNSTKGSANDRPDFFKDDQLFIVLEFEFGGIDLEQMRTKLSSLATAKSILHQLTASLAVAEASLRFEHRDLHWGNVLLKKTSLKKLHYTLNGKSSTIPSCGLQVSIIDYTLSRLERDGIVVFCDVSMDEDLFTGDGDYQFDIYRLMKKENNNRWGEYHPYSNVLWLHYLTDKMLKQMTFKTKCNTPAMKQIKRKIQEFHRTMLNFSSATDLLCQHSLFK
Test: ADP-Glo kinase inhibition assay, Haspin
Assay type: biochemical
Settings: read-out: Haspin % residual activity at 1 μM
MEASUREMENT NAME: remaining activity at 1 µM (%)
Just the number please, in %, no unit attached.

Noted for CCCCc1c2cnccc2c([N+](=O)[O-])c2c1cnn2CC : its remaining activity at 1 µM reads 78

Noted for CCn1ncc2cc3cnccc3c(N)c21 : its remaining activity at 1 µM reads 17

Noted for Cn1ncc2cc3cnccc3c(N)c21 : its remaining activity at 1 µM reads 10

Noted for Cn1ncc2cc3cnccc3c([N+](=O)[O-])c21 : its remaining activity at 1 µM reads 26

Noted for CCc1c2cnccc2c([N+](=O)[O-])c2c1cnn2CC : its remaining activity at 1 µM reads 63

---

Biological target: Pim-1 (Homo sapiens)
Construct: host or cells: bacteria
Sequence (P11309 whole entry): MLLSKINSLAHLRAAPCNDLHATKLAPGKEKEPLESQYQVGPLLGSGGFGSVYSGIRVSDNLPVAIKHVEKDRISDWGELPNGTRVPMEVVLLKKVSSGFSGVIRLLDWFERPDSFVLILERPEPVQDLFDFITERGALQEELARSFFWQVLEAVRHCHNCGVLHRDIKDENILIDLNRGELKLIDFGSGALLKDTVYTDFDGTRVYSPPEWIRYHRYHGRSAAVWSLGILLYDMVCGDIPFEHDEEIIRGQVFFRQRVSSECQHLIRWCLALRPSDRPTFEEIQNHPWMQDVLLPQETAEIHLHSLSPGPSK
Test: ADP-Glo kinase inhibition assay, Pim-1
Type: biochemical
Conditions: 1 μM compound, 10 μM ATP, duplicate; read-out: PIM1 % residual activity at 1 μM
Method: Kinase enzymatic activities were assayed in 384 well plates using the ADP-GloTM assay kit (Promega, Madison, WI, USA) according to the manufacturer’s guidance. […] The transmitted signal was measured using the Envision (Perkin Elmer, Waltham, MA, USA) microplate luminometer and expressed in relative light unit (RLU). […] Kinase activities are expressed in the percentage of maximal activity, i.e., measured in the absence of an inhibitor. […]
MEASUREMENT NAME: remaining activity at 1 µM (%)
Just the number please, in %, no unit attached.

Noted for CCn1ncc2c(C)c3cnccc3c([N+](=O)[O-])c21 : its remaining activity at 1 µM reads 100

Noted for Cn1ncc2cc3cnccc3c(N)c21 : its remaining activity at 1 µM reads 91

Noted for CCn1ncc2cc3cnccc3c([N+](=O)[O-])c21 : its remaining activity at 1 µM reads 100

Noted for CCn1ncc2cc3cncc(Br)c3c([N+](=O)[O-])c21 : its remaining activity at 1 µM reads 77

Noted for CCCCc1c2cnccc2c([N+](=O)[O-])c2c1cnn2CC : its remaining activity at 1 µM reads 78

Noted for CCc1c2cnccc2c([N+](=O)[O-])c2c1cnn2CC : its remaining activity at 1 µM reads 100

Noted for Cn1ncc2cc3cnccc3c([N+](=O)[O-])c21 : its remaining activity at 1 µM reads 100

Noted for CCCc1c2cnccc2c([N+](=O)[O-])c2c1cnn2CC : its remaining activity at 1 µM reads 86

Noted for O=[N+]([O-])c1c2ccncc2cc2cn[nH]c12 : its remaining activity at 1 µM reads 90

Noted for CCn1ncc2c(C3CC3)c3cnccc3c([N+](=O)[O-])c21 : its remaining activity at 1 µM reads 99

Noted for Nc1c2ccncc2cc2cn[nH]c12 [Compound 2a, 1-H-pyrazolo[3,4-g]isoquinolin-9-amine] : its remaining activity at 1 µM reads 100

Noted for CCn1ncc2cc3cnccc3c(N)c21 : its remaining activity at 1 µM reads 91

---

Target: GSK3β (Homo sapiens)
Construct: host or cells: Sf9 insect cells (baculovirus)
Sequence (P49841 whole entry): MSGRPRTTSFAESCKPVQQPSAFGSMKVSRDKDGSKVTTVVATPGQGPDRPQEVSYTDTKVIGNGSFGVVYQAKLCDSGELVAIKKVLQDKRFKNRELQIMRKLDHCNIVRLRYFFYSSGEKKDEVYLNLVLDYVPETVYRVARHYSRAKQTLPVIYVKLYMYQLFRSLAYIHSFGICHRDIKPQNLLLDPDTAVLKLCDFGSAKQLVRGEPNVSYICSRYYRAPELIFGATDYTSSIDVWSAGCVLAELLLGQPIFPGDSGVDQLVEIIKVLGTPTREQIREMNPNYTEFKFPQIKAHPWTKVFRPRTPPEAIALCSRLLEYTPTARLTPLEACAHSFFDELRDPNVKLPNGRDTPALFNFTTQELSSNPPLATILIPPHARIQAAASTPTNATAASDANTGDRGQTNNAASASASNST
Test: ADP-Glo kinase inhibition assay, GSK3β
Assay type: biochemical
Details: read-out: GSK3 % residual activity at 1 μM
Grouping by measured remaining activity at 1 µM is done with the following cut points: range A: < 40%; range B: ≥ 40% and < 70%; range C: ≥ 70%

Tag the class for CCc1c2cnccc2c([N+](=O)[O-])c2c1cnn2CC [Compound 3b]
range A

Tag the class for CCn1ncc2cc3cncc(Br)c3c([N+](=O)[O-])c21 [Compound 4]
range C

Tag the class for CCn1ncc2c(C3CC3)c3cnccc3c([N+](=O)[O-])c21 [Compound 3d]
range A

Tag the class for CCn1ncc2cc3cnccc3c([N+](=O)[O-])c21 [Compound 1c]
range B

Tag the class for CCCc1c2cnccc2c([N+](=O)[O-])c2c1cnn2CC [Compound 3c]
range A

Tag the class for CCn1ncc2cc3cnccc3c(N)c21 [Compound 2c]
range C

Tag the class for Cn1ncc2cc3cnccc3c([N+](=O)[O-])c21 [Compound 1b]
range C

Tag the class for Nc1c2ccncc2cc2cn[nH]c12 [Compound 2a, 1-H-pyrazolo[3,4-g]isoquinolin-9-amine]
range B

Tag the class for O=[N+]([O-])c1c2ccncc2cc2cn[nH]c12 [1a’]
range C

---

Recorded pIC50 values (GSK3β (Homo sapiens, UniProt P49841)) are given below.
Here pIC50 is given on a logarithmic scale as minus log10 of the concentration in mol/L.

Noted for CCn1ncc2c(C3CC3)c3cnccc3c([N+](=O)[O-])c21 : its pIC50 reads 6.65

Noted for CCn1ncc2c(C)c3cnccc3c([N+](=O)[O-])c21 : its pIC50 reads 5.97

Noted for Nc1c2ccncc2cc2cn[nH]c12 [Compound 2a, 1-H-pyrazolo[3,4-g]isoquinolin-9-amine] : its pIC50 reads 6.39

Noted for CCCc1c2cnccc2c([N+](=O)[O-])c2c1cnn2CC : its pIC50 reads 6.66

---

Molecular target: CK1ε (Homo sapiens, UniProt P49674)
Construct: host or cells: Sf9 insect cells (baculovirus)
Sequence (P49674 whole entry): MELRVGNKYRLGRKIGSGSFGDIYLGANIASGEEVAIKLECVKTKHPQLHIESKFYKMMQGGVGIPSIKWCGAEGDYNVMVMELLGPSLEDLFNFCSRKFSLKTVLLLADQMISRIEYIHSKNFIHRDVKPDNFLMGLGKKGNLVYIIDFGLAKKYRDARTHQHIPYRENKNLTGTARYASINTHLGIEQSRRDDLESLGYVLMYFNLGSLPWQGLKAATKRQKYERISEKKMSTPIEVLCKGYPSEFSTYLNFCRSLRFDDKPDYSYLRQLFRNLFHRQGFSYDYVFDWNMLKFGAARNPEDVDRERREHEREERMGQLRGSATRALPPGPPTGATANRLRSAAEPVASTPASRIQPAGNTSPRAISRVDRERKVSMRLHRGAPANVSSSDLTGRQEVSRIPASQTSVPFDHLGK
Test: ADP-Glo kinase inhibition assay, CK1ε
Type: biochemical
Conditions: 10 μM compound, 10 μM ATP, duplicate; read-out: CK1 % residual activity at 10 μM
Lab note: compare remaining activity at 10 µM with 50%, writing criterion met if less and criterion not met if equal or more.

Field: below-cutoff. Rule: recorded remaining activity at 10 µM strictly less than 50%. Subject: O=[N+]([O-])c1c2ccncc2cc2cn[nH]c12
criterion not met

Field: below-cutoff. Rule: recorded remaining activity at 10 µM strictly less than 50%. Subject: CCCCc1c2cnccc2c([N+](=O)[O-])c2c1cnn2CC
criterion not met

Field: below-cutoff. Rule: recorded remaining activity at 10 µM strictly less than 50%. Subject: Cn1ncc2cc3cnccc3c(N)c21
criterion met

Field: below-cutoff. Rule: recorded remaining activity at 10 µM strictly less than 50%. Subject: CCCc1c2cnccc2c([N+](=O)[O-])c2c1cnn2CC
criterion met

Field: below-cutoff. Rule: recorded remaining activity at 10 µM strictly less than 50%. Subject: CCn1ncc2cc3cncc(Br)c3c([N+](=O)[O-])c21
criterion not met

Field: below-cutoff. Rule: recorded remaining activity at 10 µM strictly less than 50%. Subject: Cn1ncc2cc3cnccc3c([N+](=O)[O-])c21
criterion not met

Field: below-cutoff. Rule: recorded remaining activity at 10 µM strictly less than 50%. Subject: CCc1c2cnccc2c([N+](=O)[O-])c2c1cnn2CC
criterion met

Field: below-cutoff. Rule: recorded remaining activity at 10 µM strictly less than 50%. Subject: CCn1ncc2c(C3CC3)c3cnccc3c([N+](=O)[O-])c21
criterion met

Field: below-cutoff. Rule: recorded remaining activity at 10 µM strictly less than 50%. Subject: CCn1ncc2cc3cnccc3c(N)c21
criterion met

Field: below-cutoff. Rule: recorded remaining activity at 10 µM strictly less than 50%. Subject: Nc1c2ccncc2cc2cn[nH]c12 [Compound 2a, 1-H-pyrazolo[3,4-g]isoquinolin-9-amine]
criterion met

Field: below-cutoff. Rule: recorded remaining activity at 10 µM strictly less than 50%. Subject: CCn1ncc2c(C)c3cnccc3c([N+](=O)[O-])c21
criterion met

Field: below-cutoff. Rule: recorded remaining activity at 10 µM strictly less than 50%. Subject: CCn1ncc2cc3cnccc3c([N+](=O)[O-])c21
criterion not met

FYI, the data here is from paper PMC9457941.
